Read-out: Plasminogen activator inhibitor-1 (PAI1), SERPINE1 (gene 5054)
Experiment: BSK_BE3C_PAI1: BioMAP Diversity Plus: BE3C Assay for Plasminogen activator inhibitor-1 (PAI1) Biomarker Activity (AID 2283037)
Conditions: primary human bronchial epithelial cells; actives raise or lower the signal
The source made the active and inactive calls. How the source made its calls: active means hit-call score of the fitted dose curve at least 0.9, where 1 is the maximum; inactive means score below 0.9.
Give one outcome, nothing more. List: active, inactive

As a guide, the following entries are already answered.
[
  {
    "compound": "CC(C)(C)c1cc([N+](=O)[O-])cc(C(C)(C)C)c1O",
    "categoryLabel": "inactive"
  },
  {
    "compound": "CCOP(=O)(OCC)OC(=CCl)c1ccc(Cl)cc1Cl",
    "categoryLabel": "inactive"
  },
  {
    "compound": "O=C(O)C1(c2ccc3c(c2)OC[C@H](Cc2ccc(-c4ccccc4)cc2)[C@H]3O)CCCC1",
    "categoryLabel": "active"
  },
  {
    "compound": "Cc1ccc2nc3sc(=O)sc3nc2c1",
    "categoryLabel": "inactive"
  },
  {
    "compound": "CC(C)N(C(=O)CCl)c1ccccc1",
    "categoryLabel": "inactive"
  },
  {
    "compound": "CC(C)(COCC1CO1)COCC1CO1 (centres undefined)",
    "categoryLabel": "inactive"
  }
]

Qu. Outcome? Nc1c(Oc2ccccc2)cc(O)c2c1C(=O)c1ccccc1C2=O
Ans. active

Qu. Outcome? CCOP(=S)(OCC)SCS(=O)(=O)C(C)(C)C
Ans. inactive

Qu. Outcome? Clc1cccc(Cl)c1Cl
Ans. inactive

----------
Test: ATG_VDRE_CIS: Attagene CIS-FACTORIAL HepG2 Assay for human Vitamin D Receptor Element (VDRE) (AID 2282968)
Settings: HepG2 VDRE cis-reporter transcription, actives raise or lower the signal
The source made the active and inactive calls. How the source made its calls: active means hit-call score of the fitted dose curve at least 0.9, where 1 is the maximum; inactive means score below 0.9.
Give one outcome, nothing more. List: active, inactive

[
  {
    "compound": "Cc1cccc(OP(=O)(Oc2cccc(C)c2)Oc2cccc(C)c2)c1",
    "categoryLabel": "active"
  },
  {
    "compound": "CC(O)(CS(=O)(=O)c1ccc(F)cc1)C(=O)Nc1ccc(C#N)c(C(F)(F)F)c1 (stereo not given)",
    "categoryLabel": "active"
  },
  {
    "compound": "CCOC(=O)C(SP(=S)(OC)OC)c1ccccc1 (stereo not given)",
    "categoryLabel": "inactive"
  },
  {
    "compound": "Clc1cc(C(Cl)(Cl)Cl)cnc1Cl",
    "categoryLabel": "inactive"
  },
  {
    "compound": "CCOC(=O)c1ccccc1S(=O)(=O)NC(=O)Nc1nc(Cl)cc(OC)n1",
    "categoryLabel": "inactive"
  }
]

Qu. Outcome? c1cc[c]([Sb]([c]2ccccc2)[c]2ccccc2)cc1
Ans. inactive

Qu. Outcome? CCCCN(CCCC)C(=S)[S-].CCCCN(CCCC)C(=S)[S-].[Ni+2]
Ans. inactive

Qu. Outcome? O=c1[nH]c2ccccc2n1C1CCN(CCCC(c2ccc(F)cc2)c2ccc(F)cc2)CC1
Ans. inactive

Qu. Outcome? CCOP(=S)(OCC)Oc1ccc(Cl)cc1Cl
Ans. active

Qu. Outcome? Clc1cccc(Cl)c1
Ans. inactive

Qu. Outcome? CCCCCCCCCCCCCCC(Br)C(=O)O (stereo not given)
Ans. active

Qu. Outcome? C[As+](C)(C)CC(=O)[O-]
Ans. inactive

The measured values listed here are drawn from PubChem BioAssay (EPA / NIEHS).
